The values you see were collected from patent US9249453B2.

target: OR5P3 (Homo sapiens, UniProt Q8WZ94); construct: expressed in transfected cells; host or cells: HEK293; experiment: Luciferase reporter assay: suppression of the skatole response of OR5P3 expressed in HEK293 cells; assay type: cell-based; details: test substance 100 μM mixed with 300 μM skatole, HEK293 cells expressing OR5P3
Sequence (Q8WZ94 whole entry): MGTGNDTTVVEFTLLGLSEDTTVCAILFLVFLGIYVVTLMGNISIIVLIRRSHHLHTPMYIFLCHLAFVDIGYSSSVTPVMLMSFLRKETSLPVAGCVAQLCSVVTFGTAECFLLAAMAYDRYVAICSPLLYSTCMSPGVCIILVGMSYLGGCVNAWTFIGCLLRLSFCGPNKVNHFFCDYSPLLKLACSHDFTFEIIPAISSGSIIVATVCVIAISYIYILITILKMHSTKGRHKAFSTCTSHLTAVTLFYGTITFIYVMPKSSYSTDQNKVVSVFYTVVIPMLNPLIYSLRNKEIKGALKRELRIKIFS
ASSAY_METRIC: Inhibition rate 5P3

>>> result("CC1=CCC(C=CC(C)C(C)O)C1(C)C (stereo not drawn)")
"A (A >80%)"
>>> result("Cc1ccc(C(C)C)c(O)c1")
"A (A >80%)"
>>> result("C=C1CCCC(C)(C)C1C=CC(=O)CC (stereo not drawn)")
"C (C >20%)"
>>> result("CC(=O)OC(C)(C)Cc1ccccc1 [dimethylbenzylcarbinyl acetate, α,α-Dimethyl phenylethyl acetate]")
"C (C >20%)"
>>> result("CC(C)c1cccc(C(C)CC=O)c1 (stereo not drawn) [Florhydral]")
"B (B >50%)"
>>> result("CCOC(=O)OC1CCCCC1C(C)(C)C (stereo not drawn) [Flormat, Ethyl 2-tert-butyl cyclohexyl carbonate]")
"A (A >80%)"
>>> result("CCCCCCCC1CCC(=O)O1 (stereo not drawn) [γ-undecalactone, 5-Heptyl dihydro-2(3H)-furanone]")
"B (B >50%)"
>>> result("CC/C=C\\CCOC(=O)c1ccccc1O [cis-3-hexynlyl salicylate, 3(Z)-Hexenyl 2-hydroxy benzoate]")
"B (B >50%)"
>>> result("CC(=O)C1=C(C)C2CC3(C1)C(C)CCC3C2(C)C (stereo not drawn)")
"A (A >80%)"

###

biological target: OR5P3 (Homo sapiens, UniProt Q8WZ94); construct: expressed in transfected cells; host or cells: HEK293; assay: Luciferase reporter assay: suppression of the skatole response of OR5P3 expressed in HEK293 cells; assay type: cell-based; details: test substance 100 μM mixed with 300 μM skatole, HEK293 cells expressing OR5P3
ASSAY_METRIC: Inhibition rate 5P3

>>> result("CCOC(=O)C1OC1(C)c1ccccc1 (centres unmarked)")
"C (C >20%)"
>>> result("CC1C/C=C/CCCCCCCCCC(=O)C1 (centres unmarked) [Muscenone delta, (5E)-3-methylcyclopentadec-5-en-1-one]")
"C (C >20%)"
>>> result("CC1=CC(C)C(C=O)CC1 (centres unmarked) [Triplal, Dimethyl-3-cyclohexene-1-carboxaldehyde]")
"C (C >20%)"
>>> result("CC(CC=O)CCCC(C)(C)O (centres unmarked) [hydroxycitronellal, 7-Hydroxy-3,7-dimethyl-octanal]")
"B (B >50%)"
>>> result("CC(C)CCCC(C)CCO (centres unmarked) [tetrahydrogenol, 3,7-Dimethyl-1-octanol]")
"B (B >50%)"

###

Items are presented alongside their recorded inhibition at 100 µM.
biological target: OR8H1 (Homo sapiens); construct: expressed in transfected cells; host or cells: HEK293; assay: Luciferase reporter assay: suppression of the skatole response of OR8H1 expressed in HEK293 cells; assay type: cell-based; details: 4 h; test substance 100 μM mixed with 300 μM skatole, HEK293 cells expressing OR8H1; read-out: Inhibition rate 8H1
Sequence (Q8NGG4 whole entry): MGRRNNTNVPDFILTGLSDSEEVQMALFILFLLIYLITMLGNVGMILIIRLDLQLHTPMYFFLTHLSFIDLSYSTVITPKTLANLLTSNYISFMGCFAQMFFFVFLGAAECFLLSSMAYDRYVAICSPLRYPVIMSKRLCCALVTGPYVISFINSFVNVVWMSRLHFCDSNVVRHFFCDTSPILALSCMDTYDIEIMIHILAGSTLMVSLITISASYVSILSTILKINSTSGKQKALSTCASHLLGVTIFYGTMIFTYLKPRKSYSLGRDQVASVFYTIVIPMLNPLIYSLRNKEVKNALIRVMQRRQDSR
ASSAY_METRIC: inhibition at 100 µM

>>> result("C=CC(C)(O)CCC=C(C)CCC=C(C)C (stereo not drawn)")
"< 20%"
>>> result("CC(C=O)C1CCCCC1 (stereo not drawn)")
"< 20%"
>>> result("CC12CCC(C1)C(C)(C)C2O (stereo not drawn)")
"20 to 50%"
>>> result("CC/C=C\\CC1=C(C)CCC1=O [cis-jasmone]")
"20 to 50%"
>>> result("C=CC(C)=CCC(C)(C)C(=NO)C(C)C")
"20 to 50%"
>>> result("CC(CCO)CCc1ccccc1 (stereo not drawn)")
"< 20%"
>>> result("CCC(O)COC1CCCCC1C(C)(C)C (stereo not drawn)")
"> 80%"
>>> result("C=C1CCCC(C)(C)C1C=CC(=O)CC (stereo not drawn)")
"50 to 80%"
>>> result("CC(C)CCCC(C)CCO (stereo not drawn) [tetrahydrogenol, 3,7-Dimethyl-1-octanol]")
"> 80%"
>>> result("CC1C/C=C/CCCCCCCCCC(=O)C1 (stereo not drawn)")
"20 to 50%"
>>> result("CCCCCCCC1CCC(=O)O1 (stereo not drawn) [γ-undecalactone, 5-Heptyl dihydro-2(3H)-furanone]")
"50 to 80%"
>>> result("O=C1CCCCCCCCCCCCCCO1 [pentalide, Oxacyclohexadecan-2-one]")
"> 80%"
>>> result("O=C1CCCCCCC=CCCCCCCC1")
"< 20%"
>>> result("CC1=CCC(C=CC(C)C(C)O)C1(C)C (stereo not drawn)")
"50 to 80%"
>>> result("CC(CC=O)CCCC(C)(C)O (stereo not drawn) [hydroxycitronellal, 7-Hydroxy-3,7-dimethyl-octanal]")
"20 to 50%"
>>> result("CC(CO)CC(C)c1ccccc1 (stereo not drawn)")
"50 to 80%"
>>> result("C=CCCC(=O)C1=CCCC(C)(C)C1")
"> 80%"
>>> result("CC=CC(=O)C1C(C)C=CCC1(C)C (stereo not drawn)")
"20 to 50%"
>>> result("Cc1ccc(C(C)C)c(O)c1")
"20 to 50%"
>>> result("C=C(C)C1CC=C(C=O)CC1 (stereo not drawn)")
"50 to 80%"
>>> result("CC(C)=CCCC1=CCC(C=O)CC1 (stereo not drawn)")
"20 to 50%"
>>> result("CC(C)=CCC/C(C)=C/CO [geraniol, 2-trans-3,7-Dimethyl-2,6-octadien-1-ol]")
"50 to 80%"
>>> result("CC1(C)CCCC2=C1CC(C=O)CC2 (stereo not drawn)")
"20 to 50%"
>>> result("COC(C)(C)CCCC(C)CC=O (stereo not drawn)")
"20 to 50%"
